src = the Human Domainome abundance scans (Beltran et al. 2025)

B1: Far upstream element-binding protein 1, residues 98 to 169; numbered along this chain, Q96AE4 (parent)
chain: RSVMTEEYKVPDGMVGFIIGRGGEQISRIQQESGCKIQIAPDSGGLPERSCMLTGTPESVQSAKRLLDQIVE

- Variants of: B1
- Assay comment: abundance fitness (aPCA) (normalised: wild type 0, dead -1); higher = more abundant; growth selection in yeast, the domain comes from the species named
- Recorded conditions: Homo sapiens
Assign met to entries whose abundance fitness meets or exceeds -0.05; assign not met to the rest.

seq_text=RSVMTEEYKVPDGMVGFIIGRGGEQISRIQQESGCKIQIAPDSGGLPERSCMLTGTPESVQSAKRLLDQIRE category_label=met
seq_text=RSVMTEEYKVPDGMVGFIIGRGGEQISRIQQESGCKIQIAPDSGGLPERSCMVTGTPESVQSAKRLLDQIVE category_label="not met"
seq_text=RSVMTEEYKVPDGMVGFIIGRGGEQISRIQQESGCKIQIAPDSGGLPERSCMLTGTPESVQSAKRLLDQKVE category_label=met
seq_text=RSVMTEEYKVPDGMVGFIIGRGGEQISRIQQESGCKIQIMPDSGGLPERSCMLTGTPESVQSAKRLLDQIVE category_label=met
seq_text=RSVMTEEYCVPDGMVGFIIGRGGEQISRIQQESGCKIQIAPDSGGLPERSCMLTGTPESVQSAKRLLDQIVE category_label="not met"
seq_text=RSVMTEEYKVPDGMVGFIIGRGGEQISRIQQESGCKIQIAPDSGGLPERSCMLIGTPESVQSAKRLLDQIVE category_label="not met"
seq_text=RSVMTEEYKVPDGMVGFIIGRGGEQISRIQQESGCKIQIAPDSGGLRERSCMLTGTPESVQSAKRLLDQIVE category_label="not met"
seq_text=RSVMTEEYKVPDGMVGFIIGRGGEQISRIQQESGCKIQIAPDSGGGPERSCMLTGTPESVQSAKRLLDQIVE category_label=met
seq_text=RSVMTEEYKVPDGMVGFIIGRGGEQISRIQQESGCKIQIAPDSGGLPPRSCMLTGTPESVQSAKRLLDQIVE category_label="not met"
seq_text=RSVMTEEYKVPDGMVFFIIGRGGEQISRIQQESGCKIQIAPDSGGLPERSCMLTGTPESVQSAKRLLDQIVE category_label="not met"
seq_text=RSVMTEEYKVPDGMVGFIIGRGGEQISRIQQESGCKIQIAPDVGGLPERSCMLTGTPESVQSAKRLLDQIVE category_label="not met"
seq_text=RSVMTEEYMVPDGMVGFIIGRGGEQISRIQQESGCKIQIAPDSGGLPERSCMLTGTPESVQSAKRLLDQIVE category_label=met
seq_text=RSVMTEEYKVPDGMVGFIIGRGGEQISRIQQESGCKIQIAPDSGGLPERECMLTGTPESVQSAKRLLDQIVE category_label="not met"
seq_text=RSVMTEEYKVPDGMVGFIIGRGGEQISRIQQESGCKIQIAPDSGGLPERSCMSTGTPESVQSAKRLLDQIVE category_label="not met"
seq_text=RSVMTEEYKVPDGMVGFIIGRGGEQISRIQQESGCKIQIAPDSGGLPERSCMGTGTPESVQSAKRLLDQIVE category_label="not met"
seq_text=RSVMTEEYKVPDGMVGFIIGRGGEQISRIQQESGCKIQIAPPSGGLPERSCMLTGTPESVQSAKRLLDQIVE category_label=met
seq_text=RSVMTEEYKVPDGMVGFIIGRGGEQISRIQQESGCSIQIAPDSGGLPERSCMLTGTPESVQSAKRLLDQIVE category_label=met
seq_text=RSVMTEEYKVPDGMVGFIIGRGGEQISRIQQESGCKIQIAPDSGGLPERSCMLTGTPESVQSAKRYLDQIVE category_label="not met"
seq_text=RSVMTEEYKVPDGMVGFIIGRGGEQISRIQQESGCPIQIAPDSGGLPERSCMLTGTPESVQSAKRLLDQIVE category_label="not met"
seq_text=RSVMTEEYKVPDGMVGFIIGRGGEQISRIQQESGCKIQIAPDSGGLPEPSCMLTGTPESVQSAKRLLDQIVE category_label="not met"
seq_text=RSVMTEEYKVPDGMVGFIIGRGGEQISRIQQESGCKIQIAPDSGGLPERSCMLTGTPESHQSAKRLLDQIVE category_label="not met"
seq_text=RSVMTEEYKVPDGMVGFIIGRGGEQIWRIQQESGCKIQIAPDSGGLPERSCMLTGTPESVQSAKRLLDQIVE category_label="not met"
